Experiment: MTS viability assay, HepG2
Format: cell-based, human
Conditions: human, HepG2 cells; HepG2, 24 h exposure, MTS; read-out: IC50 (cytotoxicity)
Excerpt: Human neuroblastoma SH-SY5Y cells (ECACC 94030304), human hepatocyte carcinoma HepG2 (ECACC 85011430) and human embryonic kidney HEK293 (ECACC 85120602) used in the experiments were obtained from the European Collection of Authenticated Cell Cultures (ECACC) through Sigma-Aldrich (Steinheim, Germany). […]
quantity_measured: IC50 at 24 h (µM)

{"columns": ["item_smiles", "unit_abbreviation", "experimental_result"],
 "data": [
  ["C=C(C)[C@@H]1CCC(C)=C[C@H]1c1c(O)cc(CCCCC)cc1O", "µM", 40],
  ["CC1=C2C(=CO[C@H](C)[C@H]2C)C(O)=C(C(=O)O)C1=O", "µM", 59]
]}

###

Experiment: Lymphocyte proliferation / cytotoxicity (CBPI, RI)
Format: cell-based, human
Conditions: human, citrinin 7.50 µg/mL, CBD 3.15 µg/mL, bleomycin 1.25 µg/mL, deduced from RI
quantity_measured: cytotoxicity at 24 h

{"columns": ["compound", "quantity_measured", "experimental_result"],
 "data": [
  ["CC1=C2C(=CO[C@H](C)[C@H]2C)C(O)=C(C(=O)O)C1=O [CIT, citrinin]", "cytotoxicity at 24 h", "16.5%"],
  ["C=C(C)[C@@H]1CCC(C)=C[C@H]1c1c(O)cc(CCCCC)cc1O [CBD, cannabidiol]", "cytotoxicity at 24 h", "2.86%"]
]}

###

Test: MTS viability assay, HEK293
Assay type: cell-based, human
Conditions: human, HEK293 cells; HEK293, 24 h exposure, MTS; read-out: IC50 (cytotoxicity)
quantity_measured: IC50 at 24 h

{"columns": ["item_smiles", "experimental_result"],
 "data": [
  ["CC1=C2C(=CO[C@H](C)[C@H]2C)C(O)=C(C(=O)O)C1=O", "440 nM"],
  ["C=C(C)[C@@H]1CCC(C)=C[C@H]1c1c(O)cc(CCCCC)cc1O", "5000 nM"]
]}
